biological target: Histone deacetylase 3 (Homo sapiens); test: Inhibition of recombinant human HDAC3 using Boc-Lys (acetyl)-AMC as substrate preincubated with compound for 1 hr followed by substrate addition and measured after 30 mins by microplate reader assay
Sequence (O15379 whole entry): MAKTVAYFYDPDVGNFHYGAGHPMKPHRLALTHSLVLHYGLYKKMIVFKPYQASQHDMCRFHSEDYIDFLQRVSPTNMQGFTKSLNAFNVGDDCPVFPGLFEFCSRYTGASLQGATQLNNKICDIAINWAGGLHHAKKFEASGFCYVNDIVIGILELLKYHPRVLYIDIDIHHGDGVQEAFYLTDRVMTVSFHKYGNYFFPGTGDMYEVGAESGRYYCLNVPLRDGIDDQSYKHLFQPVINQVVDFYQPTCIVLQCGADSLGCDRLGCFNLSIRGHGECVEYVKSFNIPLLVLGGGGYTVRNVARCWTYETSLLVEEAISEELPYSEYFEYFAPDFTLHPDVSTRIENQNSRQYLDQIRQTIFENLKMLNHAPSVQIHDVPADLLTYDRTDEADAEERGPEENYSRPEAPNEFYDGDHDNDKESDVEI
Measured Quantity: IC50 (nM)

Please review the following examples before continuing.
1) C=C1C(=O)O[C@@H]2C[C@@]3(C)CC[C@@H](OC(=O)[C@@H](C)NC(=O)c4cccc(/C=C/C(=O)NO)c4)C(=C)[C@@H]3C[C@H]12 = 103
2) C=C1C(=O)O[C@@H]2C[C@@]3(C)CC[C@@H](OC(=O)CNC(=O)c4cccc(/C=C/C(=O)NO)c4)C(=C)[C@@H]3C[C@H]12 = 63.1
3) C=C1C(=O)O[C@@H]2C[C@@]3(C)CC[C@@H](OC(=O)[C@@H](C)NC(=O)c4ccc(C(=O)Nc5ccccc5N)cc4)C(=C)[C@@H]3C[C@H]12 = 473
4) C=C1C(=O)O[C@@H]2C[C@@]3(C)CC[C@@H](OC(=O)[C@H](C)NC(=O)c4ccc(/C=C/C(=O)NO)cc4)C(=C)[C@@H]3C[C@H]12 = 51.9
5) C=C1C(=O)O[C@@H]2C[C@@]3(C)CC[C@@H](OC(=O)[C@H](C)NC(=O)c4cccc(/C=C/C(=O)NO)c4)C(=C)[C@@H]3C[C@H]12 = 113

[1] C=C1C(=O)O[C@@H]2C[C@@]3(C)CC[C@@H](OC(=O)[C@H](C)NC(=O)c4ccc(C(=O)NO)cc4)C(=C)[C@@H]3C[C@H]12
[2] C=C1C(=O)O[C@@H]2C[C@@]3(C)CC[C@@H](OC(=O)[C@@H](C)NC(=O)c4ccc(/C=C/C(=O)NO)cc4)C(=C)[C@@H]3C[C@H]12
q: Lower value for measured IC50? Options: 1 , 2 Pick one; state its label.
a: 2
(2: 272 nM, 1: 441 nM)
